Test system: OVCAR-3 ovarian
Test: NCI tumour cell line growth inhibition, 48 h; in the data active = GI50 below about 0.43 µM; inactive = the rest
Could you please pick one outcome from this set? active, inactive

I'd appreciate the recorded outcome for COc1ccccc1[As]=[As]c1ccccc1OC (configuration not stated) from this test.
active

Recorded call for COc1ccc(-c2cn(-c3ccc(OC)c(OC)c3)c(=O)[nH]2)cc1 ?
inactive

Write down the call the test reported for this compound. Item: O=C(NCCOCCOCCOCCNC(=O)c1cc2c(o1)C(=O)c1ccccc1C2=O)NC12CC3CC(CC(C3)C1)C2
inactive

Please share the test call associated with Cc1ccc(Cl)c(NS(=O)(=O)c2ccc(-c3cnc(C4CC4)o3)cc2)c1 .
active

Please share the test call associated with O=C(/C=C/c1ccccn1)c1ccc(OCc2nnc(-c3ccc(Cl)cc3)o2)cc1 .
inactive

Which outcome was assigned to COc1cc2c3c(n(CCCNCCCNCCN)c(=O)c2cc1OC)-c1cc2c(cc1C3=O)OCO2 in this test?
inactive

So what was the verdict on C[N+](C)(C)c1cc[c]([Sn]([c]2ccc([N+](C)(C)C)cc2)([c]2ccc([N+](C)(C)C)cc2)[c]2ccc([N+](C)(C)C)cc2)cc1 in this test?
inactive

Recorded test call requested for CCCCCCCCCCCCN=C(N)c1ccc(N2CCN(c3ccc(C(N)=NCCCCCCCCCCCC)cc3)CC2)cc1
inactive

Could you check what this test reported for CCN(CC)CCN1c2nc3ccccc3cc2Sc2cc3ccccc3nc21 ?
inactive

I'd appreciate the recorded outcome for CCOc1ccc(C(C[N+](=O)[O-])Sc2ccccc2N)cc1 (configuration not stated) from this test.
inactive

# fetch the recorded call for COc1ccc(C(=O)c2cc3c(N)c(C(=O)Nc4cccc(Br)c4C)sc3nc2C)cc1 here
active

Hey, what did the test say about C=C1C(=O)O[C@H]2[C@H]1CC/C(COC(=O)/C=C\C(=O)NCc1ccc(Cn3c(=O)sn(CCI)c3=O)cc1)=C\CC[C@@]1(C)O[C@@H]21 ?
inactive

Dear all, I need the recorded test outcome for O=C1Cc2cc(CCn3cncn3)c(Cl)cc2N1 , thank you.
inactive

What did the test return for O=C(Nc1cc(F)c(F)cc1C(=O)O)c1ccc(-n2ccnc2)nn1 ?
inactive

Answer briefly: the call reported for CN(C)Cc1ccc(NC(=O)c2cncc(C#Cc3cnc(N)c4ncccc34)c2)cc1F in this assay.
inactive

Short answer needed: outcome of this test for N#Cc1nc(C#N)c(Sc2ccccc2)c(Sc2ccccc2)c1Sc1ccccc1 ?
inactive

# outcome recorded in this test, key = O=C(Nc1cc(Cl)cc(Cl)c1)c1cccc(NC2=C(Cl)C(=O)N(Cc3ccccc3)C2=O)c1
inactive

Source of measurements: PubChem BioAssay (NCI)
